# Test system: OPM-2 cells
# method_description: Cell viability assay (CellTiter-Glo), OPM-2
# Type: cell-based
# condition_summary: Homo sapiens, 24 hours incubation, 1% FBS, read-out: Average pIC50 by molecule OPM-2 (converted)
observed_property: IC50

Indicate its recorded IC50; the compound in question is Cc1nc2c(C(=O)NC3CCC(=O)NC3=O)cc(OCC(=O)N3CCN(CCn4c(C(=O)O)c(CCCOc5cccc6ccccc56)c5ccc(Cl)c(-c6c(C)nn(C)c6C)c54)CC3)cc2[nH]1 (centres unmarked)
≤ 1000 nM

Tell me measured IC50 for Cc1nn(C)c(C)c1-c1c(Cl)ccc2c(CCCOc3cccc4ccccc34)c(C(=O)O)n(CCN3CCN(C(=O)COc4cccc5c4C(=O)N(C4CCC(=O)NC4=O)C5=O)CC34CC4)c12 (centres unmarked) please.
≤ 1000 nM

# return recorded IC50 for input Cc1nn(C)c(C)c1-c1c(Cl)ccc2c(CCCOc3cccc4ccccc34)c(C(=O)O)n(CCN3CCN(C(=O)Cn4c(C)nc5c(C(=O)NC6CCC(=O)NC6=O)cccc54)CC3)c12 (centres unmarked)
≤ 316 nM

Given the compound Cc1cc(OCCCc2c(C(=O)O)n(CCN3CCN(C(=O)COc4cccc5c4C(=O)N(C4CCC(=O)NC4=O)C5=O)CC3)c3c(-c4c(C)nn(C)c4C)c(Cl)ccc23)cc(C)c1Cl (centres unmarked) , write its reported IC50.
≤ 1000 nM

Report measured IC50; entry is Cc1nn(C)c(C)c1-c1c(Cl)ccc2c(CCCOc3cccc4ccccc34)c(C(=O)O)n(CCN3CCN(C(=O)COc4cccc5c4C(=O)N(C4CCC(=O)NC4=O)C5=O)CC3)c12 (centres unmarked)
≤ 1000 nM

State, in one line, measured IC50 of Cc1nn(C)c(C)c1-c1c(Cl)ccc2c(CCCOc3cccc4ccccc34)c(C(=O)O)n(CCN3CCN(C(=O)COc4cccc5c4CN(C4CCC(=O)NC4=O)C5=O)CC3)c12 (centres unmarked)
≤ 316 nM

Read off the recorded IC50 for Cc1nn(C)c(C)c1-c1c(Cl)ccc2c(CCCOc3cccc4cc(F)ccc34)c(C(=O)O)n(CCN3CCN(C(=O)COc4cccc5c4C(=O)N(C4CCC(=O)NC4=O)C5=O)CC3)c12 (centres unmarked)
≤ 316 nM

Dear colleague, please send me the reported IC50 for Cc1nn(C)c(C)c1-c1c(Cl)ccc2c(CCCOc3cccc4ccccc34)c(C(=O)O)n(CCN3CCN(C(=O)CNc4cccc5c4C(=O)N(C4CCC(=O)NC4=O)C5=O)CC3)c12 (centres unmarked) when you can.
≤ 1000 nM

Let me know recorded IC50 for Cc1nn(C)c(C)c1-c1c(Cl)ccc2c(CCCOc3cccc4ccccc34)c(C(=O)O)n(CCN3C[C@@H]4CN(C(=O)COc5cccc6c5C(=O)N(C5CCC(=O)NC5=O)C6=O)C[C@@H]4C3)c12 (some centres unmarked) , thanks.
≤ 3160 nM

Identify the reported IC50 for the following entry. Cc1nn(C)c(C)c1-c1c(F)ccc2c(CCCOc3cccc4cc(F)ccc34)c(C(=O)O)n(CCN3CCN(C(=O)COc4cccc5c4C(=O)N(C4CCC(=O)NC4=O)C5=O)CC3)c12 (centres unmarked)
≤ 1000 nM

From here, focus on the item given below.
Write down IC50 measured for item Cc1nn(C)c(C)c1-c1c(Cl)ccc2c(CCCOc3cccc4c3CCCC4)c(C(=O)O)n(CCN3CCN(C(=O)COc4cccc5c4C(=O)N(C4CCC(=O)NC4=O)C5=O)CC3)c12 (centres unmarked)
≤ 100 nM

* * *

Exercise: for every item that follows, state its recorded Simple Western, % of protein reduction.
# measured_on: MCL-1 protein (Homo sapiens, UniProt Q07820)
# Sequence (Q07820 whole entry): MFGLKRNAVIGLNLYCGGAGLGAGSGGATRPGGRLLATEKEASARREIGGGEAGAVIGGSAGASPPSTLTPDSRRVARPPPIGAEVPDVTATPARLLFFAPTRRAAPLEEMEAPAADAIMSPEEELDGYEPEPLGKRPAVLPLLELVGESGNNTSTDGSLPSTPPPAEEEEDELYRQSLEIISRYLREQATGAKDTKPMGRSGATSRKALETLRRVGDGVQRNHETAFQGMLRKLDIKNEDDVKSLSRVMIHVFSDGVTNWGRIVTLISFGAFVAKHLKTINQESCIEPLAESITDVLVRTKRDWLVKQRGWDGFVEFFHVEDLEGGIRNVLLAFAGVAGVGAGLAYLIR
# method_description: OPM-2 cells: MCL-1 protein degradation, Simple Western
# Assay type: cell-based
# Parameters: endogenous in cells; host or cells: OPM-2
# condition_summary: OPM-2 cell line, 6 h treatment, 100 nM compound, vs DMSO

Example results:
Supply recorded Simple Western, % of protein reduction for Cc1nn(C)c(C)c1-c1c(Cl)ccc2c(CCCOc3cccc4ccccc34)c(C(=O)O)n(CCN3CCN(C(=O)COc4cccc5c4CN(C4CCC(=O)NC4=O)C5=O)CC3)c12 (stereo not drawn) here.
≥40%

Please indicate Simple Western, % of protein reduction recorded for Cc1cc(OCCCc2c(C(=O)O)n(CCN3CCN(C(=O)COc4cccc5c4C(=O)N(C4CCC(=O)NC4=O)C5=O)CC3)c3c(-c4c(C)nn(C)c4C)c(Cl)ccc23)cc(C)c1Cl (stereo not drawn)
≥20%

Let us move to another entry and its Simple Western, % of protein reduction.
State its Simple Western, % of protein reduction: Cc1nn(C)c(C)c1-c1cccc2c(CCCOc3cccc4ccccc34)c(C(=O)O)n(CCN3CCN(C(=O)COc4cccc5c4C(=O)N(C4CCC(=O)NC4=O)C5=O)CC3)c12 (stereo not drawn)
≥20%

* * *

I'd appreciate it if you could supply Fold change at 1.2 uM (caspase 3/7 activity in cardiomyocytes) values for the items below.
# System: iCELL Cardiomyocytes
# method_description: Cardiac safety: caspase 3 and 7 activation (Caspase-Glo 3/7) in iCELL Cardiomyocytes
# Assay type: cell-based
# condition_summary: 1.2 uM, 24 hours incubation, vs DMSO

// fetch Fold change at 1.2 uM (caspase 3/7 activity in cardiomyocytes) given entry Cc1nn(C)c(C)c1-c1c(Cl)ccc2c(CCCOc3cccc4ccccc34)c(C(=O)O)n(CCN3CCN(C(=O)COc4cccc5c4C(=O)N(C4CCC(=O)NC4=O)C5=O)CC3)c12 (centres unmarked)
≤1.5 ± 0.2

Indicate its recorded Fold change at 1.2 uM (caspase 3/7 activity in cardiomyocytes); the molecule in question is Cc1nn(C)c(C)c1-c1c(Cl)ccc2c(CCCOc3cccc4ccccc34)c(C(=O)O)n(CCN3CCN(C(=O)Cn4c(C)nc5c(C(=O)NC6CCC(=O)NC6=O)cccc54)CC3)c12 (centres unmarked)
≤1.5 ± 0.2

Parameter requested: Fold change at 1.2 uM (caspase 3/7 activity in cardiomyocytes). Apply to each item below.
1. Cc1nn(C)c(C)c1-c1c(Cl)ccc2c(CCCOc3cccc4ccccc34)c(C(=O)O)n(CCN3CCN(C(=O)COc4cccc5c4CN(C4CCC(=O)NC4=O)C5=O)CC3)c12 (centres unmarked)
2. Cc1c2c(nn1C)CSCc1cc(n(C)n1)CSc1cc(c3ccccc3c1)OCCCc1c(C(=O)O)n(C)c3c-2c(Cl)ccc13 [AZD5991, reference compound]
3. Cc1nn(C)c(C)c1-c1c(Cl)ccc2c(CCCOc3cccc4cc(F)ccc34)c(C(=O)O)n(CCN3CCN(C(=O)COc4cccc5c4C(=O)N(C4CCC(=O)NC4=O)C5=O)CC3)c12 (centres unmarked)

1: ≤1.5 ± 0.2; 2: 2.9 ± 0.5; 3: ≤1.5 ± 0.2

* * *

Kindly supply the reported EC50 values for the records listed here.
# measured_on: [MCL-1]-[compound of formula (I)]-[CRBN/DDB1] complex (Homo sapiens, UniProt Q07820+Q96SW2)
# Sequence (Q07820 whole entry): as above
# Sequence (Q96SW2 whole entry): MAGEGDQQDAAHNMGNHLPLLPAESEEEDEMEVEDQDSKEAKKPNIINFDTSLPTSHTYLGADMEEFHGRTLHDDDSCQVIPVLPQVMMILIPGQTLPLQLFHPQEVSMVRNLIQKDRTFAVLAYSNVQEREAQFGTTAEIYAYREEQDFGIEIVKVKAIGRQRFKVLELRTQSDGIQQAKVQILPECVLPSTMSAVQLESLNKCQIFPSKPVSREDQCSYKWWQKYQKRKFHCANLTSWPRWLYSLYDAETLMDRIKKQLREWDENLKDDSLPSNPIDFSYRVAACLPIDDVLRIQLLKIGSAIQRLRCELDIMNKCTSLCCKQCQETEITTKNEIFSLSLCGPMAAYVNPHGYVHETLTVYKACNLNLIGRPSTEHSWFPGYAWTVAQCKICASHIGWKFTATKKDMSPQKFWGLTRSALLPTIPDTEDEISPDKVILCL
# Sequence (Q16531 whole entry partner): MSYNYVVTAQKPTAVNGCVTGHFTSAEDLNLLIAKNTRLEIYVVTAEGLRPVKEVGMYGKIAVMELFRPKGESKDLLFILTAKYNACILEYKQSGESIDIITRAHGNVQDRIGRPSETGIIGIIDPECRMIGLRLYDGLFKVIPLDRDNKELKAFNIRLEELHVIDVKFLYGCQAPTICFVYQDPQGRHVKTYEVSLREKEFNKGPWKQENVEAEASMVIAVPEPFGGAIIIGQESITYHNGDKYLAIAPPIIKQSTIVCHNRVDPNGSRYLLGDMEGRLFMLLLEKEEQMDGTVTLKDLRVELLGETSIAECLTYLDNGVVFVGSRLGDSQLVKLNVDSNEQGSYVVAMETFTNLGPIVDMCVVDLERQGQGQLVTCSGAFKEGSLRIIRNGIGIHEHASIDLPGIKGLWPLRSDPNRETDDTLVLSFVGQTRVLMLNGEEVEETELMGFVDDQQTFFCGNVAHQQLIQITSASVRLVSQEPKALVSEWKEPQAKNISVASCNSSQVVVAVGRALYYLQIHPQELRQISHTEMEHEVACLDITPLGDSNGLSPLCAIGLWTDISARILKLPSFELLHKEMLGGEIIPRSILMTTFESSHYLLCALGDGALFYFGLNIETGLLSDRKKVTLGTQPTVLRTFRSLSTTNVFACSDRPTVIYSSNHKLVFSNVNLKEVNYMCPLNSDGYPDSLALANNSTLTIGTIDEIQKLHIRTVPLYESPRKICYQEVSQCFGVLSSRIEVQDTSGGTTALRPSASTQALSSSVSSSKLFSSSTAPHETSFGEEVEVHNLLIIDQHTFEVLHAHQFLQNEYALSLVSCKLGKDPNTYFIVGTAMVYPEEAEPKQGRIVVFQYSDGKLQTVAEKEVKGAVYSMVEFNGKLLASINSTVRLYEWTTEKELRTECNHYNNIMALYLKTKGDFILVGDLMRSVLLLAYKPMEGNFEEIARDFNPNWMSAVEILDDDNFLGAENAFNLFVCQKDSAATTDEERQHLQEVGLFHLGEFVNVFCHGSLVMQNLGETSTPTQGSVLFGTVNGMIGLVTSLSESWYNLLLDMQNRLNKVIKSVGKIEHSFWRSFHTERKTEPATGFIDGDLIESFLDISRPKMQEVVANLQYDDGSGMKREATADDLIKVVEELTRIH
# method_description: AlphaLISA dose response ternary complex formation assay
# Format: binding
# condition_summary: read-out: AlphaLISA dose response Average pEC50 by molecule (converted)

Each compound below has a recorded value; state its EC50.
1. Cc1nc2c(NCC(=O)N3CCN(CCn4c(C(=O)O)c(CCCOc5cccc6cc(F)ccc56)c5ccc(Cl)c(-c6c(C)nn(C)c6C)c54)CC3)cccc2cc1C1CCC(=O)NC1=O (stereo not shown) [Compound 284]
2. Cc1nn(C)c(C)c1-c1c(Cl)ccc2c(CCCOc3cccc4cc(F)ccc34)c(C(=O)O)n(CCN3CCN(C(=O)Cn4c(C)nc5c(C(=O)NC6CCC(=O)NC6=O)cc(N)cc54)CC3)c12 (stereo not shown) [Compound 275]
3. Cc1nn2c(c1-c1c(F)ccc3c(CCCOc4cccc5cc(F)ccc45)c(C(=O)O)n(CCN4CCN(C(=O)COc5cccc6c5CN(C5CCC(=O)NC5=O)C6=O)CC4)c13)CCC2 (stereo not shown) [Compound 225]
4. Cc1c2c(nn1C)CSCc1cc(n(C)n1)CSc1cc(c3ccccc3c1)OCCCc1c(C(=O)NS(=O)(=O)CCNC(=O)CCOCCOCCNc3cccc4c3C(=O)N(C3CCC(=O)NC3=O)C4=O)n(C)c3c-2c(Cl)ccc13 (stereo not shown) [Compound 261]
5. Cc1nn(C)c(C)c1-c1c(Cl)ccc2c(CCCOc3cccc4c3CCCC4)c(C(=O)O)n(CCN3CCN(C(=O)COc4cccc5c4CN(C4CCC(=O)NC4=O)C5=O)CC3)c12 (stereo not shown) [Compound 219]
6. Cc1nn(C)c(C)c1-c1c(Cl)ccc2c(CCCOc3cccc4ccccc34)c(C(=O)O)n(CCN3CCN(C(=O)COc4cccc5c4CN(C4CCC(=O)NC4=O)C5=O)C4CC43)c12 (stereo not shown) [Compound 222]
7. Cc1c(-c2cccc3c(CCCOc4cccc5ccccc45)c(C(=O)O)n(CCN4CCN(C(=O)COc5cccc6c5C(=O)N(C5CCC(=O)NC5=O)C6=O)CC4)c23)c(COc2ccc(Br)c(C=O)c2)nn1C (stereo not shown) [Compound 251]

1: < 100 nM; 2: < 100 nM; 3: < 100 nM; 4: < 1000 nM; 5: < 10 nM; 6: < 100 nM; 7: < 100 nM
